# Tested on: CCRF-CEM leukemia
# TEST_METHOD_NOTES: NCI tumour cell line growth inhibition, 48 h; in the data active = GI50 below about 0.43 µM; inactive = the rest
Output constraint: value belongs to yes (1) = active, no (0) = inactive

Look up the recorded call for C#C[C@@]1(O)[C@@H](CO)O[C@@H](n2cc(Cl)c3c(N)ncnc32)[C@@H]1O in this test.
yes (1)

Look up the recorded call for COc1ccc(-c2cc(-c3ccc(Nc4nc(Nc5ccc(Cl)cc5)nc(Nc5ccc(Cl)cc5)n4)cc3)no2)cc1 in this test.
no (0)

Look up the recorded call for CCCCCCCCCCCCCOC(=O)c1c(C)[nH]c(/C=C2\N=C(c3ccc[nH]3)C=C2OC)c1C in this test.
yes (1)
